# credit: patent US8329739B2

- SYSTEM_NAME: LPL (lipoprotein lipase) (Mus musculus, UniProt P11152)
- Construct: endogenous in cells; host or cells: C2C12 cells, differentiated
- Sequence (P11152 28-474): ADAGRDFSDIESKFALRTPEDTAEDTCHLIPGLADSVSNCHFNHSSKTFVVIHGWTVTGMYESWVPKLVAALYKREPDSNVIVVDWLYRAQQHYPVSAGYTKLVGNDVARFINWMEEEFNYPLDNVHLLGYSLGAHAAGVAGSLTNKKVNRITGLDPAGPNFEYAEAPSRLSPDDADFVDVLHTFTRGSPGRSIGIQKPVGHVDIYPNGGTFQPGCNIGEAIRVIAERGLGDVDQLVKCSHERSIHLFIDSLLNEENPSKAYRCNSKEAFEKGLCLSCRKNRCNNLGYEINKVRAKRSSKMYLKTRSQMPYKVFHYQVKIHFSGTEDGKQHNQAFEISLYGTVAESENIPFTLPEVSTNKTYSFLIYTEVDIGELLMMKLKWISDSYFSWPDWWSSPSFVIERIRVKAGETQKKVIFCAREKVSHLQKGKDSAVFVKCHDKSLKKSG
- ASSAY_DETAILS: Confirmation test of LPL activation effect in mouse skeletal muscle cells (C2C12 cells)
- Format: cell-based
- ASSAY_CONDITIONS: amount of addition 30 μM, 8 hours exposure, vs control group
- Procedure: Human skeletal muscle cells (human skeletal muscle myoblasts) or mouse skeletal muscle cells (C2C12 cells) that were seeded onto plates, cultured, and differentiated were exposed to a 0.3% dimethyl sulfoxide-containing culture medium in which the compound of the present invention was dissolved (concentration: 10 μM or 30 μM). […] LPL activity in the supernatant was measured using an LPL activity assay kit (made by Roar Biomedical Inc.). […]
Binary call on Rate of increase in LPL activity: yes (1) from 300% upward, no (0) beneath that.

Past entries and their recorded results:
{"SMILES_REPR": "COc1cc(-c2c[nH]c(-c3ccc(C)c(F)c3)n2)ccc1OCc1ccccc1.Cl", "SYSTEM_NAME": "LPL (lipoprotein lipase) (Mus musculus, UniProt P11152)", "CAT": "no (0)"}
{"SMILES_REPR": "COc1cc(OCc2ccc(C#N)cc2)ccc1-c1c[nH]c(-c2ccc(C(C)(C)C)cc2)n1", "SYSTEM_NAME": "LPL (lipoprotein lipase) (Mus musculus, UniProt P11152)", "CAT": "no (0)"}
{"SMILES_REPR": "COc1ccc(-c2nc(-c3ccc(OCc4ccc(Br)cc4F)cc3OC)c[nH]2)cc1.Cl", "SYSTEM_NAME": "LPL (lipoprotein lipase) (Mus musculus, UniProt P11152)", "CAT": "yes (1)"}
{"SMILES_REPR": "COc1cc(OCc2ccccc2)ccc1-c1c[nH]c(-c2cc(F)cc(F)c2)n1.Cl", "SYSTEM_NAME": "LPL (lipoprotein lipase) (Mus musculus, UniProt P11152)", "CAT": "no (0)"}

Tell me whether Rate of increase in LPL activity is at least 300% here: COc1cc(OCc2ccc(Br)cc2F)ccc1-c1c[nH]c(-c2ccc(F)c(Cl)c2)n1
no (0)
